Source: patent US20130261130A1

target-or-system: Factor Xa (Homo sapiens, UniProt P00742)
Sequence (P00742 235-488 limits assumed): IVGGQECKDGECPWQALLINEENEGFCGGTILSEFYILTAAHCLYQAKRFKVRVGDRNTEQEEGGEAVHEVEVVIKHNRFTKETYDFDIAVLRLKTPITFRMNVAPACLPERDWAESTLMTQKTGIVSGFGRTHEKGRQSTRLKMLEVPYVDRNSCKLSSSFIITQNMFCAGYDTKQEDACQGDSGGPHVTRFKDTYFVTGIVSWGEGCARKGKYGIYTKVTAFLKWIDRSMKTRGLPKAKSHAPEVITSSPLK
Sequence (P00742 41-179 partner limits assumed): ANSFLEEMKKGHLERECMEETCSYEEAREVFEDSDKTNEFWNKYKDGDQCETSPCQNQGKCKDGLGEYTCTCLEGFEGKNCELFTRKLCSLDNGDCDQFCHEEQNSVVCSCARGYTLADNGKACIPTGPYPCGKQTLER
measurement-kind: pIC50
// pIC50 is dimensionless: -log10 of concentration (M)

## Input State the recorded pIC50 for this entry: O=C(Nc1ccc(Cl)cc1)c1ccc(NC(=O)c2ccc(-c3nc4cc(Cl)c(Cl)cc4[nH]3)cc2)c(C(=O)O)c1
## Output 4.40

* * *

target-or-system: human neurotrypsin (Homo sapiens)
Sequence (P56730 21-875): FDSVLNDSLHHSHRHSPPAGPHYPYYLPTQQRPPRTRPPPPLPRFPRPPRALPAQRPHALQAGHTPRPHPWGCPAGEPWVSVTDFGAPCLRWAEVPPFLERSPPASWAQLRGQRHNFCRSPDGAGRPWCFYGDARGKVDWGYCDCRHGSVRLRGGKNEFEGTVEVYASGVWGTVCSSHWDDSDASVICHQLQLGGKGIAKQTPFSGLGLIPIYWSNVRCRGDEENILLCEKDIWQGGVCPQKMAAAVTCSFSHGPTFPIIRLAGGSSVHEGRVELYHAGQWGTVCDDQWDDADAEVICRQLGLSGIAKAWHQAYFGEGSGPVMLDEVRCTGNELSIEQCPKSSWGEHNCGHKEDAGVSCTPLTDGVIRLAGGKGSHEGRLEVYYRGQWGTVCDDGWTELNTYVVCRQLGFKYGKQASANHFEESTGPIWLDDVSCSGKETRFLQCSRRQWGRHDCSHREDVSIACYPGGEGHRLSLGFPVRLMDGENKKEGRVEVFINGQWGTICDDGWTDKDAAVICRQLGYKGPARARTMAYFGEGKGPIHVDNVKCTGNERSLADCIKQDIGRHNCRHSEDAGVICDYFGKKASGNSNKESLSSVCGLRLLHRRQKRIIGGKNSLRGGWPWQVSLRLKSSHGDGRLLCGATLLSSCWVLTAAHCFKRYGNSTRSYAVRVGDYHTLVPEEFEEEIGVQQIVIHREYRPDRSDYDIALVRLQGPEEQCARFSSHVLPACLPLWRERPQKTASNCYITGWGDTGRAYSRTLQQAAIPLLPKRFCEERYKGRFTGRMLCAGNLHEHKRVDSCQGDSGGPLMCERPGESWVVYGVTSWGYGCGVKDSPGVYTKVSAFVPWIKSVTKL
assay: Determination of IC50 for human neurotrypsin
Format: biochemical
measurement-conditions: human neurotrypsin; method of WO 2006/1103261; read-out: Neurotrypsin IC50
Consider the following partition of reported IC50 into named classes: label 0: < 2 µM; label 1: ≥ 2 µM and < 4 µM; label 2: ≥ 4 µM

[
  {
    "compound": "O=C(NCC1CCCCC1)c1ccc(NC(=O)c2ccc(-c3nc4cc(Cl)c(Cl)cc4[nH]3)cc2)c(C(=O)O)c1 [Example 126]",
    "group": "label 0"
  },
  {
    "compound": "CC(C)CN(CC(C)C)C(=O)c1ccc(NC(=O)c2ccc(-c3nc4cc(Cl)c(Cl)cc4[nH]3)cc2)c(C(=O)O)c1 [Example 131]",
    "group": "label 0"
  },
  {
    "compound": "CCOC(=O)CN(C(=O)c1ccc(C(=O)O)c(NC(=O)c2sc3ccccc3c2Cl)c1)c1ccc(Cl)cc1 [Example 156]",
    "group": "label 2"
  },
  {
    "compound": "CCCCCCCNC(=O)c1ccc(NC(=O)c2ccc(-c3nc4cc(Cl)c(Cl)cc4[nH]3)cc2)c(C(=O)O)c1 [Example 137]",
    "group": "label 1"
  },
  {
    "compound": "O=C(O)c1cc(C(=O)N2CCC(Cc3ccc(Cl)cc3)CC2)ccc1NC(=O)c1sc2ccccc2c1Cl [Example 118]",
    "group": "label 1"
  },
  {
    "compound": "CCCCc1ccc(NC(=O)c2ccc(NC(=O)c3ccc(-c4nc5cc(Cl)c(Cl)cc5[nH]4)cc3)c(C(=O)O)c2)cc1 [Example 129]",
    "group": "label 0"
  }
]

## Input Quick check: band for N#Cc1ccc(-c2ccc(C(=O)O)c(NC(=O)c3ccc(-c4nc5cc(Cl)c(Cl)cc5[nH]4)cc3)c2)cc1 [Example 267]
## Output label 0

## Input Request: O=C(O)c1ccc(C(=O)Nc2ccc(Cl)cc2)c(NC(=O)c2sc3ccccc3c2Cl)c1 [Example 188]
## Output label 2

## Input Request: O=C(NC1CCCc2ccccc21)c1ccc(C(=O)O)c(NC(=O)c2sc3ccccc3c2Cl)c1 (stereo not shown) [Example 32]
## Output label 2

## Input Request: O=C(Nc1ccc(C(=O)N2CCC(Oc3ccccc3)CC2)cc1C(=O)O)c1ccc(-c2ccc(Cl)cc2)s1 [Example 162]
## Output label 2
